System: Leishmania donovani promastigotes expressing firefly luciferase
assay overview: antileishmanial luciferase assay on transgenic promastigotes
Format: cell-based
applied conditions: Leishmania donovani
pIC50: −log10 of the molar value.

[
  {
    "cpd smiles": "C[C@@H]1CC[C@@H]([C@@H](C)CO)[C@@]23C=C[C@@](C)(CC[C@@H]12)OO3",
    "pIC50": 3.88
  }
]
